Target: T1, human IL-4Rα on TF-1 cells (human, UniProt P24394 26-825)
T1 sequence (looked up): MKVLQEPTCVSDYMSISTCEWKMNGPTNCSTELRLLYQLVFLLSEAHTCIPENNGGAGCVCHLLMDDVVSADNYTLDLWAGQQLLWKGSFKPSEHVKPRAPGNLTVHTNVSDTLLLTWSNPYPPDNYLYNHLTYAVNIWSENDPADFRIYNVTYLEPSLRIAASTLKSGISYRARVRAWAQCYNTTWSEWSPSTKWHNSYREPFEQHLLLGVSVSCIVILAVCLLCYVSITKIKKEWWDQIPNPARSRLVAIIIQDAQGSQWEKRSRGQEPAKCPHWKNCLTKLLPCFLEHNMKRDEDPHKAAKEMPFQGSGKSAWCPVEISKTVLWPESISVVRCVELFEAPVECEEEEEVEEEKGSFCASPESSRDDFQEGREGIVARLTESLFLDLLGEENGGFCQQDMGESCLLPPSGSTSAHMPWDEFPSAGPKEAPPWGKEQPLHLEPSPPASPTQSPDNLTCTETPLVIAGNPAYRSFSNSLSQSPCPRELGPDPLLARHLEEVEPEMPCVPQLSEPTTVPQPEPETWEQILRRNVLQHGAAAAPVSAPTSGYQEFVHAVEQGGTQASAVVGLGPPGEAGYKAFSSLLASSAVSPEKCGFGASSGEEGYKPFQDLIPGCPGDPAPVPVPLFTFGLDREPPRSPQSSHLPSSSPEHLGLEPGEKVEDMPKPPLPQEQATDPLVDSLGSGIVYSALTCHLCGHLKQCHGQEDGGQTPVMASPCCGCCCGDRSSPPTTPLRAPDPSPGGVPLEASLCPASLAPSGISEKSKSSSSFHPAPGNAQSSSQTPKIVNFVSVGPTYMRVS
Test: cell-based or functional assay
Readout label: IC50 (pM), IL-13 induced TF-1 cell proliferation
All answers are understood in pM, so give the number only.

# get_value(readout='IC50 (pM), IL-13 induced TF-1 cell proliferation', item= Antibody 24 IgG (antibody, V domains shown) VH: QVQLVQSGAEVKKPGASVKVSCKASGYAFTSYYMHWARQAPGQGLEWMGIINPRGGSTSYAQKFQGRVTMTRDTSTSTVYMELSSLRSEDTAVYYCARGKYWMYDWGKGTLVTVSS VL: QSVLTQPPSVSAAPGQKVTISCSGGSSNIGNSYVSWYQQLPGTAPKLLIYDNNKRPSGIPDRFSGSKSGTSATLAITGLQTGDEADYFCGTWDTSTVWEWPFGTGTKLTVL )
30.2

# get_value(readout='IC50 (pM), IL-13 induced TF-1 cell proliferation', item= Antibody 11 IgG (antibody, V domains shown) VH: QVQLVQSGAEVKKPGASVKVSCKASGYAFTSYYMHWARQAPGQGLEWMGIINPSGGSTSYAQKFQGRVTMTRDTSTSTVYMELSSLRSEDTAVYYCARGKWWFYDWGKGTLVTVSS VL: QSVLTQPPSVSAAPGQKVTISCSGGSSNIGNSYVSWYQQLPGTAPKLLIYDNNKRPSGIPDRFSGSKSGTSATLAITGLQTGDEADYYCGTWDTSPSMIPLFGTGTKLTVL )
32.7

# get_value(readout='IC50 (pM), IL-13 induced TF-1 cell proliferation', item= Antibody 20 IgG (antibody, V domains shown) VH: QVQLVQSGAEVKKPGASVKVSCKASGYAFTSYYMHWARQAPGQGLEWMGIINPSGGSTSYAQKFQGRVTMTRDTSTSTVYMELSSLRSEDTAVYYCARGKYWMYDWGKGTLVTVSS VL: QSVLTQPPSVSAAPGQKVTISCSGGSSNIGNSYVSWYQQLPGTAPKLLIYDNNKRPSGIPDRFSGSKSGTSATLAITGLQTGDEADYYCGTWDTSTVWEWPFGTGTKLTVL )
66.1

# get_value(readout='IC50 (pM), IL-13 induced TF-1 cell proliferation', item= Antibody 21 IgG (antibody, V domains shown) VH: QVQLVQSGAEVKKPGASVKVSCKASGYAFTSYYMHWARQAPGQGLEWMGIINPSGGSASYAQKFQGRVTMTRDTSTSTVYMELSSLRSEDTAVYYCARGKYWMYDWGKGTLVTVSS VL: QSVLTQPPSVSAAPGQKVTISCSGGSSNIGNSYVSWYQQLPGTAPKLLIYDNNKRPSGIPDRFSGSKSGTSATLAITGLQTGDEAVYFCGTWDTSTVWEWPFGTGTKLTVL )
34.7

# get_value(readout='IC50 (pM), IL-13 induced TF-1 cell proliferation', item= Antibody 2 IgG (antibody, V domains shown) VH: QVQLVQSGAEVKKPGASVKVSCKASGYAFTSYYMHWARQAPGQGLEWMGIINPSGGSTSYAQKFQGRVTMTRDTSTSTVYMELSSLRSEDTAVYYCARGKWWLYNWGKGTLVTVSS VL: QSVLTQPPSVSAAPGQKVTISCSGGSSNIGNSYVSWYQQLPGTAPKLLIYDNNKRPSGIPDRFSGSKSGTSATLAITGLQTGDEADYYCGTWDTSQPPNPLFGTGTKLTVL )
171

Data origin: patent US20180057596A1
